Assay info: In vivo oral pharmacokinetic study in SD rats
Parameters: species or system Sprague-Dawley rats
Experimental context: Sprague-Dawley, rat, blood, po, MSKE 143 mg/kg (20 mg/kg PGG and 0.13 mg/kg MG)
Procedure: SD rats (five rats/group) were individually housed in stainless-steel metabolic cages, which allowed for the separation and collection of urine and feces. […] After completing the pharmacokinetic study, the urine volume and dry feces weights were recorded, and all samples were stored at −80 °C until analysis. […] The pharmacokinetic parameters of MG and PGG were calculated based on the non-compartmental method using WinNonlin 3.3 (Pharsight Corporation, Mountain View, CA, USA). […]
Recorded metric: MRT last (h)
Lab book: enter the figure in h, no units written.

[in] Look up MRT last: COC(=O)c1cc(O)c(O)c(O)c1 [MG, methyl gallate]
[out] 11.1
